Where do the numbers come from? From ChEMBL document CHEMBL1135970.

species: Homo sapiens; experiment: Thrombopoietin efficacy in human bone marrow cultures was reported; assay type: functional
Measured TPO(max) of individual entries

For the compound shown here, O=C(O)c1ccc(N/C(S)=N/N=C/c2cccc(-c3cccc(C(F)(F)F)c3)c2O)cc1 , give the reported TPO(max).
100%

For the compound shown here, Cc1ccc(-c2cccc(/C=N/N=C(\S)Nc3cccc(C(=O)O)c3)c2O)cc1C , give the reported TPO(max).
90%

For the compound shown here, Cc1ccc(-n2[nH]c(C)c(/N=N/c3c(O)cc(S(=O)(=O)O)c4ccccc34)c2=O)cc1C , give the reported TPO(max).
100%

For the compound shown here, O=C(O)c1ccc(N/C(S)=N/N=C/c2cc(Cl)cc(Cl)c2O)cc1 , give the reported TPO(max).
30%

For the compound shown here, O=S(=O)(O)c1ccc(N/C(S)=N/N=C/c2cc(Cl)cc(Cl)c2O)cc1 , give the reported TPO(max).
29%

Continue with the next compound.
For the compound shown here, Cc1cc(Cl)ccc1/N=C(\S)N/N=C/c1cc(Cl)cc(Cl)c1O , give the reported TPO(max).
30%
